System: pigweed
assay.procedure: Test B pre/postemergence pigweed
Assay type: in vivo, Amaranthus retroflexus
setup.conditions: Preemergence, Rate 125 g/ha; 0 is no effect, 10 is complete control
Please respond with reported Redroot pigweed plant response rating (0 to 10 scale) for every item in the list.
Numbers only.

Provide each entry's Redroot pigweed plant response rating (0 to 10 scale) from the list below.
1. CC(C)N(C(=O)n1oc(=O)n(C(C)C)c1=O)c1ccc(F)cc1 [Compound 131]
2. CC(C)N(C(=O)n1oc(=O)n(Cc2ccco2)c1=O)c1ccc(F)cc1F [Compound 208]
3. CCCn1c(=O)on(C(=O)N(c2ccc(F)cc2F)C(C)C)c1=O [Compound 130]
4. CSc1ccc(N(C(=O)n2oc(=O)n(-c3ccccc3C)c2=O)C(C)C)cc1 [Compound 205]
5. CCc1cccc(C)c1-n1c(=O)on(C(=O)N(c2ccc(F)cc2)C(C)C)c1=O [Compound 201]

Return:
[10, 0, 10, 0, 0]

----------
System: wild oat
assay.procedure: Test B pre/postemergence wild oat
Type: in vivo, Avena fatua
setup.conditions: Postemergence, Rate 62 g/ha; scale 0 to 10, 0 is no effect, 10 is complete control
measured.endpoint: Plant response rating, Wild oats
Give bare numbers.

compound	system.under.test	recorded.number
C=C(Cl)Cn1c(=O)on(C(=O)N(c2ccc(F)cc2F)C(C)C)c1=O [Compound 634]	wild oat	0
CC(C)N(C(=O)n1oc(=O)n(CC(F)F)c1=O)c1ccc(F)cc1 [Compound 710]	wild oat	1
COCCn1c(=O)on(C(=O)N(c2ccc(F)cc2F)C(C)C)c1=O [Compound 628]	wild oat	0
C=C(Cc1ccccc1)Cn1c(=O)on(C(=O)N(c2ccccc2)C(C)C)c1=O [Compound 650]	wild oat	0
CC(C)N(C(=O)n1oc(=O)n(CCC2=NOCCC2)c1=O)c1ccc(F)cc1 [Compound 656]	wild oat	0
CC(C)N(C(=O)n1oc(=O)n(CCCCl)c1=O)c1ccc(Cl)cc1 [Compound 749]	wild oat	0

Provide each entry's Plant response rating, Wild oats from the list below.
1. CCC(C)n1c(=O)on(C(=O)N(c2ccccc2)C(C)C)c1=O (stereo not drawn) [Compound 610]
2. C#CC(C)n1c(=O)on(C(=O)N(c2ccc(F)cc2F)C(C)C)c1=O (racemic) [Compound 657]
3. CC(C)N(C(=O)n1oc(=O)n(CCCCCl)c1=O)c1ccccc1 [Compound 792]

Return:
1. 0
2. 1
3. 0

----------
Please respond with reported Plant response rating (0 to 10; 0 is no effect, 10 is complete control), Giant foxtail for every item in the list.
Test system: giant foxtail
assay.procedure: Test B pre/postemergence giant foxtail
Assay type: in vivo, Setaria faberii
setup.conditions: Rate 250 g/ha; Postemergence
Answers are plain numbers.

Example cases with answers are listed next.
compound	system.under.test	recorded.number
CC(C)N(C(=O)n1oc(=O)n(Cc2ccco2)c1=O)c1ccc(F)cc1F [Compound 208]	giant foxtail	0
C#CCn1c(=O)on(C(=O)N(c2ccc(F)cc2)C(C)C)c1=O [Compound 212]	giant foxtail	6
CC(C)N(C(=O)n1oc(=O)n(CCC2OCCCO2)c1=O)c1ccc(F)cc1 [Compound 255]	giant foxtail	6

Please examine the following record next.
Enquiry: If you can, please state the reported Plant response rating (0 to 10; 0 is no effect, 10 is complete control), Giant foxtail value of CC(C)N(C(=O)n1oc(=O)n(N(C)C)c1=O)c1ccccc1 [Compound 225] .
Return: 8

----------
Please respond with reported Velvetleaf plant response rating for every item in the list.
System: velvetleaf
assay.procedure: Test B pre/postemergence velvetleaf
Format: in vivo, Abutilon theophrasti
setup.conditions: Preemergence, Rate 62 g/ha; scale 0 to 10 (0 no effect, 10 complete control)
Numbers only.

Example cases with answers are listed next.
molecule	Velvetleaf plant response rating
CC(C)N(C(=O)n1oc(=O)n(C(C)C)c1=O)c1ccc(Cl)cc1 [Compound 114]	4
CC(C)N(C(=O)n1oc(=O)n(CC(=O)N(C)C)c1=O)c1ccccc1 [Compound 588]	0
C=CCn1c(=O)on(C(=O)N(c2ccc(Cl)cc2)C(C)C)c1=O [Compound 105]	0
COCCn1c(=O)on(C(=O)N(c2ccc(F)cc2)C(C)C)c1=O [Compound 627]	7

Provide each entry's Velvetleaf plant response rating from the list below.
1. CC(C)N(C(=O)n1oc(=O)n(CCC2OCCCO2)c1=O)c1ccccc1 [Compound 561]
2. CCC(C)n1c(=O)on(C(=O)N(c2ccccc2)C(C)C)c1=O (stereo not drawn) [Compound 611]
3. CC(C)N(C(=O)n1oc(=O)n(C(CF)CF)c1=O)c1ccc(F)cc1F [Compound 595]

Return:
0
6
7

Provide each entry's Velvetleaf plant response rating from the list below.
1. CCn1c(=O)on(C(=O)N(c2ccccc2)C(C)C)c1=O [Compound 117]
2. CC(C)N(C(=O)n1oc(=O)n(CCCF)c1=O)c1ccccc1 [Compound 559]

Return:
6
3

----------
Tested on: smallflower flatsedge
assay.procedure: Test B flood test smallflower flatsedge
Assay type: in vivo, Cyperus difformis
setup.conditions: Rate 500 g/ha; Pre-emergence; flood test species; scale 0 to 10 (0 no effect, 10 complete control)
Description: At the same time, these crop and weed species were also treated with postemergence applications of test chemicals formulated in the same manner. Plants ranged in height from 2 to 18 cm (1- to 4-leaf stage) for postemergence treatments. […] Treated plants and controls were maintained in a greenhouse for twelve to sixteen days, after which all species were compared to controls and visually evaluated. […]
measured.endpoint: S. Flatsedge plant response rating

Provide each entry's S. Flatsedge plant response rating from the list below.
1. CCC(CC)n1c(=O)on(C(=O)N(c2ccccc2)C(C)C)c1=O
2. CC(C)N(C(=O)n1oc(=O)n(C(C)C(=O)N(C)C)c1=O)c1ccccc1 (stereo not drawn)
3. CC1CC1n1c(=O)on(C(=O)N(c2ccc(Cl)cc2)C(C)C)c1=O (stereo not drawn)

Return:
[0, 0, 0]

----------
Test system: giant foxtail
assay.procedure: Test B pre/postemergence giant foxtail
Assay type: in vivo, Setaria faberii
setup.conditions: Preemergence, Rate 125 g/ha; scale 0 to 10, 0 is no effect, 10 is complete control
Please respond with reported Giant foxtail plant response rating for every item in the list.
One number for each entry.

Example cases with answers are listed next.
compound	Giant foxtail plant response rating
CC(C)N(C(=O)n1oc(=O)n(C[Si](C)(C)C)c1=O)c1ccccc1 [Compound 577]	8
COC(=O)CCCn1c(=O)on(C(=O)N(c2ccc(F)cc2F)C(C)C)c1=O [Compound 513]	6
CC(C)N(C(=O)n1oc(=O)n(CCCF)c1=O)c1ccccc1 [Compound 559]	10

Provide each entry's Giant foxtail plant response rating from the list below.
1. CC(C)N(C(=O)n1oc(=O)n(CCCCF)c1=O)c1ccc(F)cc1F [Compound 522]
2. CC(C)N(C(=O)n1oc(=O)n(CC(=O)C2CC2)c1=O)c1ccc(F)cc1F [Compound 490]

Return:
1: 10; 2: 9

----------
Test system: wheat
assay.procedure: Test B pre/postemergence wheat
Assay type: in vivo, Triticum aestivum
setup.conditions: Rate 62 g/ha, Postemergence; scale 0 to 10 (0 no effect, 10 complete control)
measured.endpoint: Wheat plant response rating
Answers are plain numbers.

Example cases with answers are listed next.
compound	measured.endpoint	recorded.number
CC(=O)NCn1c(=O)on(C(=O)N(c2ccc(F)cc2)C(C)C)c1=O	Wheat plant response rating	0
C=CCn1c(=O)on(C(=O)N(CC)C2CCCCC2)c1=O	Wheat plant response rating	0

Please examine the following record next.
Enquiry: // lookup Wheat plant response rating | system=wheat | key= CC(C)N(C(=O)n1oc(=O)n(C(C)Cl)c1=O)c1ccccc1 (stereo not drawn)
Return: 0

----------
Tested on: cocklebur
assay.procedure: Test B pre/postemergence cocklebur
Format: in vivo, Xanthium strumarium
setup.conditions: Rate 500 g/ha, Postemergence; scale 0 to 10, 0 no effect, 10 complete control
measured.endpoint: Cocklebur plant response rating
Answers are plain numbers.

Example cases with answers are listed next.
smiles.str	Cocklebur plant response rating
CCN(CC)C(=O)n1oc(=O)n(Cc2cccs2)c1=O	4
CC(C)N(C(=O)n1oc(=O)n(-c2ccnn2C)c1=O)c1ccc(F)cc1	0

Provide each entry's Cocklebur plant response rating from the list below.
1. CCc1cccc(C)c1-n1c(=O)on(C(=O)N(c2ccc(F)cc2)C(C)C)c1=O
2. CC(C)N(C(=O)n1oc(=O)n(CC(C)(C)C)c1=O)c1ccc(F)cc1F
3. Cc1nn(C)c(Cl)c1-n1c(=O)on(C(=O)N(c2ccccc2)C(C)C)c1=O

Return:
1. 0
2. 2
3. 5

----------
System: morningglory
assay.procedure: Test B pre/postemergence morningglory
Format: in vivo, Ipomoea hederacea
setup.conditions: Postemergence, Rate 250 g/ha; scale of 0 to 10, 0 is no effect, 10 is complete control
Protocol: […] At the same time, these crop and weed species were also treated with postemergence applications of test chemicals formulated in the same manner. […] Treated plants and controls were maintained in a greenhouse for twelve to sixteen days, after which all species were compared to controls and visually evaluated. […]
measured.endpoint: Morningglory plant response rating
One number for each entry.

Example cases with answers are listed next.
molecule	Morningglory plant response rating
C#CC(C)n1c(=O)on(C(=O)N(c2ccc(Cl)cc2)C(C)C)c1=O (racemic)	7
C=C(C)Cn1c(=O)on(C(=O)N(c2ccccc2)C(C)C)c1=O	8

Provide each entry's Morningglory plant response rating from the list below.
1. CC[C@H](C)n1c(=O)on(C(=O)N(c2ccc(Cl)cc2)C(C)C)c1=O
2. C#CC=CC(C)(C)n1c(=O)on(C(=O)N(c2ccccc2)C(C)C)c1=O
3. C#CC(C)n1c(=O)on(C(=O)N(c2ccc(F)cc2F)C(C)C)c1=O (racemic)
4. COCCn1c(=O)on(C(=O)N(c2ccc(F)cc2F)C(C)C)c1=O
5. CC(C)N(C(=O)n1oc(=O)n(C(CF)CF)c1=O)c1ccc(F)cc1F
6. COCCn1c(=O)on(C(=O)N(c2ccc(F)cc2)C(C)C)c1=O
7. CCC(C)n1c(=O)on(C(=O)N(c2ccccc2)C(C)C)c1=O (stereo not drawn)

Return:
[9, 9, 5, 2, 3, 6, 8]
